# IgM binding (optical density) per entry
# Test system: serum IgM anti-17-α-hydroxyprogesterone antibodies
# EXPERIMENT: ELISA binding of IgM 17-α-hydroxyprogesterone antibodies to different hormones in solid phase
# Design: species or system human
# EXPERIMENTAL_SETUP: sample 2; hormone in solid phase; 405 nm
A bare number is all that is needed in reply.

CC(C)CCC[C@@H](C)[C@H]1CC[C@H]2[C@@H]3CC=C4C[C@@H](O)CC[C@]4(C)[C@H]3CC[C@]12C; 0.19
C[C@]12CCC(=O)C=C1CC[C@@H]1[C@@H]2[C@@H](O)C[C@@]2(C)[C@H]1CC[C@]2(O)C(=O)CO [HC, Hydrocortisone]; 0.5
CC(=O)[C@H]1CC[C@H]2[C@@H]3CCC4=CC(=O)CC[C@]4(C)[C@H]3CC[C@]12C; 0.79

Input: Value lookup for IgM binding (optical density); key = CC(=O)[C@@]1(O)CC[C@H]2[C@@H]3CCC4=CC(=O)CC[C@]4(C)[C@H]3CC[C@@]21C [HP, 17-α-hydroxy-progesterone]
Output: 1.2
